target: ENT2 (Homo sapiens); construct: expressed in transfected cells; assay: [3H]uridine uptake in PK15NTD/ENT2 cells; type: cell-based; settings: [3H]uridine 1 μM, 1 min, PK15NTD/ENT2 cells; read-out: IC50 against ENT2
EXPERIMENTAL READOUT: pIC50
Lab note — pIC50 values are minus log10 of concentrations in M.

Check out these entries, answers already filled in.
# INPUT SMILES, pIC50
records = [
    ("CCc1ccc(Nc2nc(N)nc(CN3CCN(c4ccccc4F)CC3)n2)cc1", 4.43),
    ("Cc1cccc(Nc2nc(N)nc(CN3CCN(c4ccc(F)cc4)CC3)n2)c1", 6.24),
    ("Nc1nc(CN2CCN(c3cccc(Cl)c3)CC2)nc(Nc2cccc3ccccc23)n1", 5.53),
]

Turning now to a further record.
Qu. Consider the compound shown here: COc1ccc(Nc2nc(N)nc(CN3CCN(c4ccccc4F)CC3)n2)cc1 What is its recorded pIC50?
Ans. 4.11

* * *

Target: ENT2 (Homo sapiens, UniProt Q14542)
Sequence (Q14542 whole entry): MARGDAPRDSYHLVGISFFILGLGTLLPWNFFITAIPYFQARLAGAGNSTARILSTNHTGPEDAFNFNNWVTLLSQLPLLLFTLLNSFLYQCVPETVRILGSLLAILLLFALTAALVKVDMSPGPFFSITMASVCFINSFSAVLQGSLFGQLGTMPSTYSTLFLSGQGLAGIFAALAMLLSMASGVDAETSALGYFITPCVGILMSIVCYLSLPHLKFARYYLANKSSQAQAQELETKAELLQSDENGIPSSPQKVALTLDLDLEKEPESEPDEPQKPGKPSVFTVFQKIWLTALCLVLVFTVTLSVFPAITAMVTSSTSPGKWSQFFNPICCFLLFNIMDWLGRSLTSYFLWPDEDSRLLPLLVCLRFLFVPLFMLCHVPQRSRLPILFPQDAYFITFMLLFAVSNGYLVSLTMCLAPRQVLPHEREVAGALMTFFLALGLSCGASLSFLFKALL
Test: Kinetic study of [3H]uridine uptake in PK15NTD/ENT2 cells
Conditions: x-intercept of slopes versus concentration plot
Description: Nucleoside transporter-deficient porcine kidney fibroblast cells (PK15NTD) stably transfected with cloned human ENT1 or ENT2 ([Ward et al., 2000]) were used as the in vitro models. […] All data were analysed by GraphPad Prism software (San Diego, CA, United States). Data are expressed as mean ± standard error (SE) of three experiments performed in triplicate. The IC50 values were determined from the dose-response curves fitted with a logistic function. […]
EXPERIMENTAL READOUT: pKi
The scale used: pKi is minus the common logarithm of the concentration in molar units.

Qu. Any idea what pKi was measured for Cc1cccc(Nc2nc(N)nc(CN3CCN(c4ccc(F)cc4)CC3)n2)c1 ?
Ans. 6.27

* * *

target: ENT1 (Homo sapiens, UniProt Q99808); assay: Kinetic study of [3H]uridine uptake in PK15NTD/ENT1 cells; conditions: x-intercept of slopes versus concentration plot
Sequence (Q99808 whole entry): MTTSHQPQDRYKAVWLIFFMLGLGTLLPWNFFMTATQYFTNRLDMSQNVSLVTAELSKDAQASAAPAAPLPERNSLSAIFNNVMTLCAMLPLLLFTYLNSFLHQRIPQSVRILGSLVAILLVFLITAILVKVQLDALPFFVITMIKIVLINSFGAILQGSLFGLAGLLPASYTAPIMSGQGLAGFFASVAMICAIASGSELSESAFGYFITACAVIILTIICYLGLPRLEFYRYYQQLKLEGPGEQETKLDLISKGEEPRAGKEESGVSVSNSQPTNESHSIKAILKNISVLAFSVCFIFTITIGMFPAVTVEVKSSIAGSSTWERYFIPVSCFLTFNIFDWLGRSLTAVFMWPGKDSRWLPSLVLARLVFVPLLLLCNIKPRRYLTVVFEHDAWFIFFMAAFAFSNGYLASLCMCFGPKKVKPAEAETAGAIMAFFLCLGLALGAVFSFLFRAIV
EXPERIMENTAL READOUT: pKi
pKi field: float, defined as -log10 of concentration (mol/L).

Qu. What value of pKi has been reported for the following compound? Cc1cccc(Nc2nc(N)nc(CN3CCN(c4ccc(F)cc4)CC3)n2)c1 [Compound 3c]
Ans. 5.55

* * *

molecular target: ENT2 (Homo sapiens, UniProt Q14542); construct: expressed in transfected cells; test: [3H]uridine uptake in PK15NTD/ENT2 cells; format: cell-based; conditions: [3H]uridine uptake, 10 nM–100 μM analogue
EXPERIMENTAL READOUT: effect on ENT2

# INPUT SMILES, EXPERIMENTAL READOUT, OBSERVED VALUE
records = [
    ("Nc1nc(CN2CCN(c3ccccc3)CC2)nc(Nc2cccc3ccccc23)n1", "effect on ENT2", "did not inhibit"),
    ("Nc1nc(CN2CCN(c3ccc(F)cc3)CC2)nc(Nc2cccc(Cl)c2)n1", "effect on ENT2", "did not inhibit"),
]
